- assay name: Cytotoxicity against human L428 cells assessed as cell viability at 10 uM after 72 to 96 hrs by JC-1 staining-based fluorescence assay
- Parameters: species or system L-428
- experimental parameters: read-out: Activity
parameter measured: viability at 10 µM

smiles entry: O=C(NCCC[C@@H](NS(=O)(=O)c1ccc(OCc2cc(Br)cc(Br)c2)cc1)C(=O)NO)OCc1ccccc1
viability at 10 µM: > 96%

Q: What value of viability at 10 µM has been recorded for this entry: Cc1cc(C#N)ccc1N1CCN(S(=O)(=O)N[C@H](CCCNC(=O)OCc2ccccc2)C(=O)NO)CC1
A: > 96%

Q: What does the record list as viability at 10 µM for Cc1cc(C#N)ccc1N1CCN(S(=O)(=O)N2CSC[C@@H]2C(=O)NO)CC1 ?
A: > 96%
